# target_desc: BIR3 domain of XIAP (Homo sapiens (Human))
# Sequence (P98170 241-356 with tags or gaps limits assumed): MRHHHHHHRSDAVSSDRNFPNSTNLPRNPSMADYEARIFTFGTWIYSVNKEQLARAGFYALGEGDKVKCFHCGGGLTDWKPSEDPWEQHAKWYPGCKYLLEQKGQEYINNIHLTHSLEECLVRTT
# procedure_summary: TR-FRET assay for BIR3 (inhibition of binding of XIAP BIR3 domain to SMAC-derived Peptide A)
# assay_setup: 6x His-tagged BIR3 domain (aa 241-356 of XIAP) 10 nM, Peptide A 20 nM, TR-FRET
pIC50: −log10 of the molar value. Structures can show the parent of a compound that is named as a salt.
experimental_endpoint: pIC50

Sample records with pIC50:
{"columns": ["compound", "experimental_endpoint", "value"],
 "data": [
  ["CN[C@@H](C)C(=O)N[C@H]1CN(C(=O)CCS(C)(=O)=O)c2cc(C(F)(F)F)ccc2N(Cc2c(C3CC3)cnc3ccccc23)C1=O [Example 188]", "pIC50", 4.59],
  ["CN[C@@H](C)C(=O)N[C@H]1CN2C(=O)CCCNC(=O)c3ccc4c(c(OC)ccc4c3)CN(C1=O)c1ccccc12 [Example 51, hydrochloride]", "pIC50", 4.37],
  ["CN[C@@H](C)C(=O)NC1C(=O)N(Cc2c(OC)ccc3cc(Br)ccc23)c2ccccc2N(c2ccccc2)C1=O (stereo partly drawn) [Example 128]", "pIC50", 4.35],
  ["CN[C@@H](C)C(=O)N[C@H]1CN(C(C)=O)c2cc(C#N)ccc2N(Cc2c(C3CC3)ccc3c(C#N)cccc23)C1=O [Example 176, hydrochloride]", "pIC50", 4.59]
]}

P. CC(=O)c1ccc(C(=O)N2C[C@H](NC(=O)[C@H](C)N)C(=O)N(Cc3c(OCC(F)(F)F)ccc4ccccc34)c3ccccc32)cc1 [Example 69h]
Q. CN[C@@H](C)C(=O)N[C@H]1CN(C(=O)C2CCOCC2)c2cc(C(F)(F)F)ccc2N(Cc2c(C3CC3)cnc3ccccc23)C1=O [Example 184]
Task item: Please indicate which item has the smaller measured pIC50: P versus Q Write down the label of the entry you select.
Reply: P
(P: 4.52, Q: 4.82)
